# tgt: T1, RXFP1 receptor (endogenous, on OVCAR5 cells) (UniProt Q9HBX9 1-757, limits assumed)
# T1 sequence (looked up): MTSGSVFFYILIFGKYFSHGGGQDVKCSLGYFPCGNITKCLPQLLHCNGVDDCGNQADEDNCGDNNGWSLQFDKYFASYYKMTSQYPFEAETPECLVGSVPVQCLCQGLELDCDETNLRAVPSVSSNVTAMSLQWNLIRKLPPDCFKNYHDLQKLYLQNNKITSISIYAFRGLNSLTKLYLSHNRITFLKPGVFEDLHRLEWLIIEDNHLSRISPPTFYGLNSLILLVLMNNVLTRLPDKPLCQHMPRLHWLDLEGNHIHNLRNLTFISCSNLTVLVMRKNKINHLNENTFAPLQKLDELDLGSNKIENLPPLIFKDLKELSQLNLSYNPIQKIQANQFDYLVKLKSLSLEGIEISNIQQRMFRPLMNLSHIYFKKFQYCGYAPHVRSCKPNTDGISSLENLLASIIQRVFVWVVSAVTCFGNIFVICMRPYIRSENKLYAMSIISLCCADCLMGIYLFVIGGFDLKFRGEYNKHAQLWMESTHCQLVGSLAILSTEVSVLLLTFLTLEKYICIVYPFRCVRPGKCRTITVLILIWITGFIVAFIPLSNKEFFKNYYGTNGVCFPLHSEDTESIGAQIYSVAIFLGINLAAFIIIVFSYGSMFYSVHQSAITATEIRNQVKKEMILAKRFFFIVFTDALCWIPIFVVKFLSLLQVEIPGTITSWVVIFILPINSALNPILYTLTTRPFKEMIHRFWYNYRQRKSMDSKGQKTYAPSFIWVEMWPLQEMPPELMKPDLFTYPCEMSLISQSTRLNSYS
# assay notes: cell-based or functional assay
Starred links: 1 amine or outer side, 2 acyl side, 3 side chain; linkers in the order of their positions; H or OH if unused. Non-standard residues stand in square brackets, D forms with d. Groups on a side chain read outwards from the residue. *: point of attachment. TTDS = 4-[3-[2-[2-(3-aminopropoxy)ethoxy]ethoxy]propylamino]-4-oxo-butanoyl; Trp(5-F) = N[C@@H](Cc1c[nH]c2ccc(F)cc12)C(=O)O; γGlu = O=C(O)[C@H](CCC(=O)[*:2])N[*:1]; Palmitoyl = CCCCCCCCCCCCCCCC(=O)*; αMeF = C[C@](N)(Cc1ccccc1)C(=O)O; αMeK = C[C@](N)(CCCCN)C(=O)O; Aib = CC(C)(N)C(=O)O
EMax, OVCAR 5 cells (cAMP) values, listed per item
endpoint: EMax, OVCAR 5 cells (cAMP) (%)

INSERT INTO assay_data (binder, readout_unit, test_result) VALUES
  ('Ac-LEGRERVRAK(Ac)I[Aib][Aib]EGK([TTDS-TTDS-TTDS-γGlu-γGlu-γGlu-Palmitoyl])ST[Trp(5-F)]S[Aib]RRK(Ac)-NH2 [peptide of SEQ ID NO: 92]', '%', 99),
  ('Ac-LEGREKVRAK(Ac)I[Aib][Aib]EGK([TTDS-TTDS-γGlu-γGlu-γGlu-Palmitoyl])STFS[dK]RAK(Ac)-NH2 [peptide of SEQ ID NO: 16]', '%', 88),
  ('Ac-LEGREKVRAK(Ac)I[Aib][Aib]EGK([TTDS-TTDS-TTDS-γGlu-γGlu-γGlu-Palmitoyl])ST[αMeF]SRRAK(Ac)-NH2 [peptide of SEQ ID NO: 89]', '%', 97),
  ('Ac-LEGREKVRAK(Ac)I[Aib]IEGK([TTDS-TTDS-TTDS-γGlu-γGlu-γGlu-Palmitoyl])STFS[αMeK]RAK(Ac)-NH2 [peptide of SEQ ID NO: 84]', '%', 95);
